- procedure.details: qHTS assay to identify small molecule antagonists of the farnesoid-X-receptor (FXR) signaling pathway - cell viability counter screen (AID 743221); note: nearly all actives have a fitted effect of over 50% in size
- run.conditions: FXR-bla HEK293T viability, CellTiter-Glo luminescence, 16 h; series mostly up to 62.6 µM
Results filed as inconclusive are left out. Calls of active or inactive are those of the source. Calls come from the whole dose curve; as a rule, active = well fitted cell-killing curve with a large enough effect in the repeat runs (not every such curve was filed as active); inconclusive = weak or mixed curves, or effect the other way; inactive = no such curve, though single readings can be large or run the other way.
Allowed answers: true (1) = active, false (0) = inactive

Look over these answered cases.
O=[N+]([O-])c1ccc(O)c2ncccc12 = false (0)
CC(Cc1ccc(O)c(O)c1)C(C)Cc1ccc(O)c(O)c1 (stereo not given) = false (0)
O=C(CCN1CCC(c2ccccc2)C1)c1ccc2c(c1)OCCO2 (stereo not given) = false (0)

Please share the test call associated with O=C1OC(O)C(C(Cl)Cl)=C1Cl (stereo not given) .
false (0)

Please share the test call associated with CN1CCN(CCCN2c3ccccc3Sc3ccc(Cl)cc32)CC1 .
true (1)
